Molecular target: Legumain (Mus musculus, UniProt O89017)
Sequence (O89017 whole entry): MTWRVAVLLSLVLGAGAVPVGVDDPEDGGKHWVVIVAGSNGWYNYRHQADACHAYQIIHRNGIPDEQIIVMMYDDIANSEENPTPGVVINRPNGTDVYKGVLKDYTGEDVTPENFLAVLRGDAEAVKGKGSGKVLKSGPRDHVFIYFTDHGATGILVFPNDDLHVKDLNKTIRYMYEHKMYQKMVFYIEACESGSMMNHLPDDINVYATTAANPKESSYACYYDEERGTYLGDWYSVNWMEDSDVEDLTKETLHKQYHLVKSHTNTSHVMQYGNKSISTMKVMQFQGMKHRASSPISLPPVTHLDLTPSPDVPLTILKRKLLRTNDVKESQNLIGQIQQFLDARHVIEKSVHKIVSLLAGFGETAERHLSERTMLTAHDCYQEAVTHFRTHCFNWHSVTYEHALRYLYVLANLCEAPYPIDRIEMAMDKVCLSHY
Test: Inhibition of mouse recombinant legumain using Cbz-Ala-Ala-Asn-AMC as substrate measured every 30 secs for 2.5 hrs by fluorimetry
resultType: IC50 (nM)

compound: CCOC(=O)/C=C/C(=O)N(CC(N)=O)NC(=O)[C@@H]1CCCN1C(=O)C(C)(C)NC(C)=O
measuredValue: 198
--
compound: CCOC(=O)C1OC1C(=O)N(CC(N)=O)NC(=O)[C@@H]1CCCN1C(C)=O (stereo partly drawn)
measuredValue: 9.3
--
compound: CCOC(=O)C1OC1C(=O)N(CC(N)=O)NC(=O)[C@@H]1CCCN1C(=O)[C@H](CC)NC(C)=O (stereo partly drawn)
measuredValue: 8.1

a = CCOC(=O)/C=C/C(=O)N(CC(N)=O)NC(=O)[C@@H]1CCCN1C(=O)C1(NC(C)=O)CC1
b = CCOC(=O)/C=C/C(=O)N(CC(N)=O)NC(=O)[C@@H]1CCCN1C(=O)[C@H]1CSCN1C(C)=O
c = CCOC(=O)/C=C/C(=O)N(CC(N)=O)NC(=O)[C@@H]1CCCN1C(=O)c1ccc(CNC(C)=O)cc1
*Q* Sort these compounds on IC50 so the largest reading comes first. # answer = labels listed in requested order
*A* c, b, a
(c: 267 nM, b: 167 nM, a: 9.3 nM)

Source listed as ChEMBL document CHEMBL1949523.
